Task for the reader: assign each of the following compounds its reported relative composition of principal chlordane components or metabolites in mayflies.
Tested on: adult C. triangulifer
Experiment: Chlordane residue (body burden), relative composition and metabolism in adult C. triangulifer by ECNI-MS
Type: in vivo, Centroptilum triangulifer (WCC 2 clone)
Settings: reared at 4.3 μg/l chlordane
Protocol: Surviving C. triangulifer individuals from the various controls and treatment groups were collected daily as subimagos (pre-adults) from emergence cages. Most subimagos emerging from a given vessel were immediately killed, measured, dried, and weighed. The viability of eggs obtained from females that had been chronically exposed as larvae to the various control and treatment conditions was also assessed. […]
Numbers only, in %.

As a guide, the following entries are already answered.
ClC1=C(Cl)C2(Cl)C3C4OC4C(Cl)C3C1(Cl)C2(Cl)Cl (stereo not drawn) [heptachlor epoxide]; 18
ClC1=C(Cl)[C@]2(Cl)[C@@H]3[C@@H](Cl)[C@H](Cl)[C@@H](Cl)[C@@H]3[C@@]1(Cl)C2(Cl)Cl [trans-nonachlor]; 45
ClC1=C(Cl)[C@]2(Cl)[C@H]3[C@H]([C@@H](Cl)[C@]4(Cl)O[C@H]34)[C@@]1(Cl)C2(Cl)Cl; 21
ClC1=C(Cl)[C@]2(Cl)[C@@H]3[C@@H](Cl)[C@@H](Cl)[C@@H](Cl)[C@@H]3[C@@]1(Cl)C2(Cl)Cl [cis-nonachlor]; 6
ClC1=C(Cl)[C@]2(Cl)[C@@H]3C[C@H](Cl)[C@@H](Cl)[C@@H]3[C@@]1(Cl)C2(Cl)Cl (relative stereo) [trans-chlordane]; 5

Okay, now this compound:
Recall and state the measured relative composition of principal chlordane components or metabolites in mayflies for ClC1=C(Cl)[C@]2(Cl)[C@@H]3C[C@@H](Cl)[C@@H](Cl)[C@@H]3[C@@]1(Cl)C2(Cl)Cl (relative stereo) [cis-chlordane] . 4
